test system: MCF7; assay: Cytotoxicity against human MCF7 cells assessed as cell growth at 10 uM; format: cell-based; conditions: mcf7, 10 µM
PROPERTY_LABEL: Activity (%)

MOLECULE	PROPERTY_LABEL	RECORDED_NUMBER
COC(=O)c1cc(C(=O)OC)c2c(Cl)cc(N(C)C)cc2n1	Activity	78.61
COC(=O)c1cc(C(N)=O)nc2cc(NC(C)=O)cc(Cl)c12	Activity	89.58
COC(=O)c1cc(C(N)=O)nc2cc(N)cc(Cl)c12	Activity	97.23
COC(=O)c1cc(C(=O)OC)c2c(Cl)cc(NC(C)=O)cc2n1	Activity	100.11
CN(C)C(=O)c1cc2c3c(c(Cl)cc(Cl)c3n1)N(C)C2=O	Activity	122.71
COC(=O)c1cc(C(=O)OC)c2c(Cl)cc(N)c(Cl)c2n1	Activity	100.27
CN1C(=O)c2cc(C(=O)NCc3ccccc3)nc3c(Cl)cc(Cl)c1c23	Activity	95.79
COC(=O)c1cc2c3c(n1)C(=O)C(=O)C(Cl)=C3N(C)C2=O	Activity	94.99
CN1C(=O)c2cc(C(N)=O)nc3c(Cl)cc(Cl)c1c23	Activity	96.11
CN1C(=O)c2cc(C(N)=O)nc3c(N)c(Cl)c(N)c1c23 [AMMOSAMIDE B]	Activity	98.04
COC(=O)c1cc(C(=O)OC)c2c(Cl)cc(N)cc2n1	Activity	105.75
